Reported cytotoxicity at 10 µM values for the following compounds.
- experimentalProtocol: Toxicity liver stage against HepG2, at 10uM
- Type: cell-based
- Design: test concentration 10 uM, cell line HepG2-A16-CD81EGFP
- conditions: human, HepG2-A16-CD81EGFP cells; read-out: INHIBITION
Write the answer as a number in %, unit excluded.

stdin: Return reported cytotoxicity at 10 µM; argument: Cc1ncnc2c1CCN(C(=O)N(C)C)CC2
stdout: -79.1

---

- experimentalProtocol: Toxicity liver stage against HepG2, at 10uM
- Assay type: cell-based
- Set-up: test concentration 10 uM, cell line HepG2-A16-CD81EGFP
- conditions: human, HepG2-A16-CD81EGFP cells; read-out: INHIBITION
endpointName: cytotoxicity at 10 µM (%)
Only the number, expressed in %, is required.

| compound | cytotoxicity at 10 µM / % |
| --- | --- |
| O=C(c1cnc(O)cn1)N1CCC(CN2CCOCC2)CC1 | 9.49 |
| CC(C)C(=O)NCc1ccc(-n2cncn2)nc1 | 0.239 |
| CC(Cc1ccccc1F)C(=O)Nc1ccc(OCCC(N)=O)cc1 (stereo unspecified) | -5.56 |
| CC(=O)c1ccc(N2CCCC(CO)(Cc3ccccc3F)C2)nc1 (stereo unspecified) | 8.59 |
| Cc1ccccc1NC(=O)CCNC(=O)c1ccoc1 | -0.714 |

stdin: Form field: reported cytotoxicity at 10 µM of Cc1cc(CN(C)C(=O)CNS(=O)(=O)c2cccs2)no1
stdout: -33.4

stdin: Input Cc1ccoc1C(=O)N1C[C@@H](N2CCN(C)CC2)[C@H]2OCCC[C@H]21
stdout: 7.1

stdin: Cool, now Cc1ncsc1C(=O)NC1CCN(CC(=O)N(C)C(C)(C)C#N)CC1
stdout: -3.88

stdin: Same thing, different compound: CC(C)Oc1ncc(C(=O)N2CCC(N(C)C)CC2)cc1Cl
stdout: -4.09

stdin: Would you kindly repeat that for O=C(c1cnccn1)N1CCc2onc(CN3CCCC3)c2C1 ?
stdout: 8.7

stdin: Now consider Cc1ccc(NC(=O)c2ncc(C(N)=O)cc2Cl)cc1F .
stdout: -3.53

stdin: Also check CN(Cc1ccsc1)C(=O)Nc1ccc(N(C)C)nc1
stdout: -3.08

stdin: Next record, please: c1ccc(CCCn2cc(-c3nc(CN4CCOCC4)no3)nn2)cc1
stdout: 2.14

stdin: What about this compound? O=C(O)c1cnc(N2CCC(c3nccn3CC3CC3)CC2)c(Cl)c1
stdout: -9.98

stdin: What do you have for CO[C@@H]1CCN(Cc2cnn(C)c2)[C@@H]2CN(Cc3cccnc3)C[C@@H]21 ?
stdout: 8.47

stdin: Proceed to CN(C)Cc1cncc2c1CCN(CC(=O)N(C)C)C2
stdout: -99.4
